Catalogue of compounds with associated solubility kinetic
assay: Kinetic solubility of compound in 0.1 M Hcl at pH1 by HPLC analysis; type: physicochemical; details: pH 1, read-out: Kinetic_solubility

>  <compound>
O=[N+]([O-])c1cn2c(n1)OC(COc1ccc(C(F)(F)F)cn1)CC2 (configuration not stated)

>  <display.unit>
µg/mL

>  <solubility kinetic>
32

$$$$
>  <compound>
CC1(COc2ccc(C(F)(F)F)cn2)CCn2cc([N+](=O)[O-])nc2O1 (configuration not stated)

>  <display.unit>
µg/mL

>  <solubility kinetic>
12

$$$$

###

test: in vivo; conditions: mouse, po, 25 mg/kg
Parameter threshold = 50%. Response is fulfilled when bioavailability at 24 h meets or exceeds it, else not fulfilled.

>  <compound>
C[C@]1(COc2ccc(C(F)(F)F)nc2)CCn2cc([N+](=O)[O-])nc2O1

>  <assigned.category>
fulfilled

$$$$
>  <compound>
CC1(COc2ccc(C(F)(F)F)nc2)CCn2cc([N+](=O)[O-])nc2O1 (stereo unspecified)

>  <assigned.category>
fulfilled

$$$$
>  <compound>
O=[N+]([O-])c1cn2c(n1)OC(COc1ncc(Cl)cn1)CC2 (stereo unspecified)

>  <assigned.category>
not fulfilled

$$$$
>  <compound>
O=[N+]([O-])c1cn2c(n1)OC(COc1ccc(C(F)(F)F)nc1)CC2 (stereo unspecified)

>  <assigned.category>
not fulfilled

$$$$
>  <compound>
CC1(COc2ccc(Cl)cn2)CCn2cc([N+](=O)[O-])nc2O1 (stereo unspecified)

>  <assigned.category>
fulfilled

$$$$
>  <compound>
C[C@@]1(COc2ccc(C(F)(F)F)nc2)CCn2cc([N+](=O)[O-])nc2O1

>  <assigned.category>
fulfilled

$$$$

###

assay: in vivo; conditions: mouse, po, 25 mg/kg
recorded.metric: Cmax at 24 h

>  <compound>
CC1(COc2ccc(C(F)(F)F)cn2)CCn2cc([N+](=O)[O-])nc2O1 (stereo not given)

>  <recorded.metric>
Cmax at 24 h

>  <assay.result>
15000 ng/mL

$$$$
>  <compound>
C[C@@]1(COc2ccc(C(F)(F)F)nc2)CCn2cc([N+](=O)[O-])nc2O1

>  <recorded.metric>
Cmax at 24 h

>  <assay.result>
8000 ng/mL

$$$$
>  <compound>
CC1(COc2ccc(Cl)cn2)CCn2cc([N+](=O)[O-])nc2O1 (stereo not given)

>  <recorded.metric>
Cmax at 24 h

>  <assay.result>
11000 ng/mL

$$$$
>  <compound>
C[C@]1(COc2ccc(C(F)(F)F)cn2)CCn2cc([N+](=O)[O-])nc2O1

>  <recorded.metric>
Cmax at 24 h

>  <assay.result>
9500 ng/mL

$$$$
>  <compound>
CC1(COc2ccc(C(F)(F)F)nc2)CCn2cc([N+](=O)[O-])nc2O1 (stereo not given)

>  <recorded.metric>
Cmax at 24 h

>  <assay.result>
11000 ng/mL

$$$$

###

Catalogue of molecules with associated half-life at 24 h
assay: Half life in mouse at 1 mg/kg, iv measured upto 24 hrs LC-MS/MS analysis; details: in vivo
recorded.metric: half-life at 24 h (min)

>  <molecule>
CC1(COc2ccc(C(F)(F)F)cn2)CCn2cc([N+](=O)[O-])nc2O1 (stereo unspecified)

>  <assay.result>
51

$$$$
>  <molecule>
O=[N+]([O-])c1cn2c(n1)OC(COc1ccc(C(F)(F)F)nc1)CC2 (stereo unspecified)

>  <assay.result>
66

$$$$
>  <molecule>
CC1(COc2ccc(C(F)(F)F)nc2)CCn2cc([N+](=O)[O-])nc2O1 (stereo unspecified)

>  <assay.result>
90

$$$$
>  <molecule>
CC1(COc2ccc(Cl)cn2)CCn2cc([N+](=O)[O-])nc2O1 (stereo unspecified)

>  <assay.result>
39

$$$$
>  <molecule>
C[C@]1(COc2ccc(C(F)(F)F)nc2)CCn2cc([N+](=O)[O-])nc2O1

>  <assay.result>
78

$$$$
>  <molecule>
C[C@@]1(COc2ccc(C(F)(F)F)nc2)CCn2cc([N+](=O)[O-])nc2O1

>  <assay.result>
72

$$$$

###

assay: Kinetic solubility of compound in water at pH7 by HPLC analysis; conditions: pH 7

>  <molecule>
C[C@@]1(COc2ccc(C(F)(F)F)cn2)CCn2cc([N+](=O)[O-])nc2O1

>  <display.unit>
µg/mL

>  <solubility kinetic>
21

$$$$
>  <molecule>
O=[N+]([O-])c1cn2c(n1)OC(COc1ncc(Cl)cn1)CC2 (stereo unspecified)

>  <display.unit>
µg/mL

>  <solubility kinetic>
6.6

$$$$
>  <molecule>
C[C@]1(COc2ccc(C(F)(F)F)cn2)CCn2cc([N+](=O)[O-])nc2O1

>  <display.unit>
µg/mL

>  <solubility kinetic>
26

$$$$
>  <molecule>
CC1(COc2cnc(C(F)(F)F)cn2)CCn2cc([N+](=O)[O-])nc2O1 (stereo unspecified)

>  <display.unit>
µg/mL

>  <solubility kinetic>
17

$$$$
>  <molecule>
CC1(COc2ncc(C(F)(F)F)cn2)CCn2cc([N+](=O)[O-])nc2O1 (stereo unspecified)

>  <display.unit>
µg/mL

>  <solubility kinetic>
9.3

$$$$
>  <molecule>
O=[N+]([O-])c1cn2c(n1)OC(COc1ccc(C(F)(F)F)nc1)CC2 (stereo unspecified)

>  <display.unit>
µg/mL

>  <solubility kinetic>
29

$$$$

###

Catalogue of compounds with associated AUC(0-t) at 24 h
experiment: AUClast in hamster at 41 to 51 mg/kg, po measured upto 24 hrs LC-MS/MS analysis; details: chinese hamster, in vivo

>  <given.smiles>
C[C@@]1(COc2ccc(C(F)(F)F)cn2)CCn2cc([N+](=O)[O-])nc2O1

>  <AUC(0-t) at 24 h / ng·h/mL>
924

$$$$
>  <given.smiles>
C[C@]1(COc2ccc(C(F)(F)F)cn2)CCn2cc([N+](=O)[O-])nc2O1

>  <AUC(0-t) at 24 h / ng·h/mL>
72

$$$$

###

assay: Stability of compound in human liver microsomes assessed as percentage of parent compound remaining at 1 uM measured after 1 hr
Catalogue of molecules with associated remaining at 1 h, 1 µM
recorded.metric: remaining at 1 h, 1 µM

>  <molecule>
CC1(COc2ncc(C(F)(F)F)cc2F)CCn2cc([N+](=O)[O-])nc2O1 (stereo not given)

>  <assay.result>
64%

$$$$
>  <molecule>
CC1(COc2ncc(C(F)(F)F)cc2Cl)CCn2cc([N+](=O)[O-])nc2O1 (stereo not given)

>  <assay.result>
23%

$$$$
>  <molecule>
CC1(COc2ncc(C(F)(F)F)cn2)CCn2cc([N+](=O)[O-])nc2O1 (stereo not given)

>  <assay.result>
88%

$$$$
>  <molecule>
CC1(COc2cnc(C(F)(F)F)cn2)CCn2cc([N+](=O)[O-])nc2O1 (stereo not given)

>  <assay.result>
91%

$$$$
>  <molecule>
CC1(COc2ccc(C(F)(F)F)nn2)CCn2cc([N+](=O)[O-])nc2O1 (stereo not given)

>  <assay.result>
90%

$$$$

###

experiment: Stability of compound in CD-1 mouse liver microsomes assessed as percentage of parent compound remaining at 0.5 uM measured after 30 mins; type: ADME, Microsome; conditions: read-out: Stability

>  <compound>
O=[N+]([O-])c1cn2c(n1)OC(COc1ncc(Cl)cn1)CC2 (stereo unspecified)

>  <display.unit>
%

>  <remaining at 0.5 h, 0.5 µM>
100

$$$$

###

test: in vivo; details: chinese hamster, po

>  <given.smiles>
C[C@]1(COc2ccc(C(F)(F)F)cn2)CCn2cc([N+](=O)[O-])nc2O1

>  <Cmax at 24 h [ng/mL]>
45

$$$$
>  <given.smiles>
C[C@@]1(COc2ccc(C(F)(F)F)cn2)CCn2cc([N+](=O)[O-])nc2O1

>  <Cmax at 24 h [ng/mL]>
310

$$$$

###

assay: Selectivity index, ratio IC50 for cytotoxicity against human MRC5 cells to IC50 for antileishmanial activity against Leishmania infantum MHOM/MA(BE)/67 amastigotes infected in macrophages
recorded.metric: selectivity ratio

>  <compound>
CC1(COc2cc(C(F)(F)F)ccn2)CCn2cc([N+](=O)[O-])nc2O1 (stereo not drawn)

>  <assay.result>
> 142

$$$$
>  <compound>
CC1(COc2ncc(C(F)(F)F)cc2F)CCn2cc([N+](=O)[O-])nc2O1 (stereo not drawn)

>  <assay.result>
> 136

$$$$
>  <compound>
CC1(COc2ccc(F)cc2)CCn2cc([N+](=O)[O-])nc2O1 (stereo not drawn)

>  <assay.result>
> 142

$$$$
>  <compound>
CC1(COc2ccc(C(F)(F)F)cc2)CCn2cc([N+](=O)[O-])nc2O1 (stereo not drawn)

>  <assay.result>
> 400

$$$$
>  <compound>
CC1(COc2ncc(C(F)(F)F)cc2Cl)CCn2cc([N+](=O)[O-])nc2O1 (stereo not drawn)

>  <assay.result>
> 246

$$$$
>  <compound>
CC1(COc2ccc(Cl)cc2)CCn2cc([N+](=O)[O-])nc2O1 (stereo not drawn)

>  <assay.result>
> 492

$$$$
>  <compound>
CC1(COc2ccc(F)nc2)CCn2cc([N+](=O)[O-])nc2O1 (stereo not drawn)

>  <assay.result>
> 9

$$$$
>  <compound>
CC1(COc2ccc(Oc3ccccc3)cc2)CCn2cc([N+](=O)[O-])nc2O1 (stereo not drawn)

>  <assay.result>
> 376

$$$$
